experiment_notes: Cmax in epithelial lining fluid of lung transplant recipient invasive aspergillosis patient at 150 mg, iv QD for 4 consecutive days by HPLC
Assay type: ADME, organism-based
Design: dose 150 mg, route intravenous
applied_conditions: human
Numbered stars: 1 amine (or outer) side, 2 acyl side, 3 side chain; on linkers, the order of the positions; unused ones are H or OH. Bridge positions count the residues as written; N and C are the ends. Square brackets hold non-standard residues; d marks the D form. Peptide text beside a SMILES is read from it. * marks the point of attachment. hTyr(3S-OH,4S-OH,3'-OSO3H) = N[C@H](C(=O)O)[C@H](O)[C@@H](O)c1ccc(O)c(OS(=O)(=O)O)c1; Orn(4R-OH,5R-OH) = O=C([C@H](C[C@@H](O)[C@@H](O)N[*:3])N[*:1])[*:2]; Pro(3S-OH,4S-Me) = C[C@H]1CN[C@H](C(=O)O)[C@H]1O; X1 = CCCCCOc1ccc(-c2cc(-c3ccc(C(=O)*)cc3)no2)cc1; Gln(3R-OH) = NC(=O)C[C@@H](O)[C@H](N)C(=O)O; Hyp = O=C(O)[C@@H]1C[C@@H](O)CN1
experimental_endpoint: Cmax
Please answer in the form of a number followed by its unit of measurement.

Prompt: Note down Cmax recorded for CCCCCOc1ccc(-c2cc(-c3ccc(C(=O)N[C@H]4C[C@@H](O)[C@@H](O)NC(=O)[C@@H]5[C@@H](O)[C@@H](C)CN5C(=O)[C@H]([C@H](O)CC(N)=O)NC(=O)[C@H]([C@H](O)[C@@H](O)c5ccc(O)c(OS(=O)(=O)O)c5)NC(=O)[C@@H]5C[C@@H](O)CN5C(=O)[C@H]([C@@H](C)O)NC4=O)cc3)no2)cc1 [MICAFUNGIN] (X1-[Orn(4R-OH,5R-OH)]T[Hyp][hTyr(3S-OH,4S-OH,3'-OSO3H)][Gln(3R-OH)][Pro(3S-OH,4S-Me)]; lactam 1-C)
Response: 1380 ng/mL

----------
experiment_notes: Drug level in alveolar cells of lung transplant recipient invasive aspergillosis patient at 150 mg, iv QD for 4 consecutive days measured after 18 hrs post last dose by HPLC
Assay type: ADME, organism-based, Pneumocyte
applied_conditions: human, read-out: Drug uptake
Numbered stars: 1 amine (or outer) side, 2 acyl side, 3 side chain; on linkers, the order of the positions; unused ones are H or OH. Bridge positions count the residues as written; N and C are the ends. Square brackets hold non-standard residues; d marks the D form. Peptide text beside a SMILES is read from it. * marks the point of attachment. hTyr(3S-OH,4S-OH,3'-OSO3H) = N[C@H](C(=O)O)[C@H](O)[C@@H](O)c1ccc(O)c(OS(=O)(=O)O)c1; Orn(4R-OH,5R-OH) = O=C([C@H](C[C@@H](O)[C@@H](O)N[*:3])N[*:1])[*:2]; Pro(3S-OH,4S-Me) = C[C@H]1CN[C@H](C(=O)O)[C@H]1O; X1 = CCCCCOc1ccc(-c2cc(-c3ccc(C(=O)*)cc3)no2)cc1; Gln(3R-OH) = NC(=O)C[C@@H](O)[C@H](N)C(=O)O; Hyp = O=C(O)[C@@H]1C[C@@H](O)CN1
experimental_endpoint: concentration at 18 h (ng/mL)
Express the result in ng/mL but write the number alone.

Prompt: Note down concentration at 18 h recorded for CCCCCOc1ccc(-c2cc(-c3ccc(C(=O)N[C@H]4C[C@@H](O)[C@@H](O)NC(=O)[C@@H]5[C@@H](O)[C@@H](C)CN5C(=O)[C@H]([C@H](O)CC(N)=O)NC(=O)[C@H]([C@H](O)[C@@H](O)c5ccc(O)c(OS(=O)(=O)O)c5)NC(=O)[C@@H]5C[C@@H](O)CN5C(=O)[C@H]([C@@H](C)O)NC4=O)cc3)no2)cc1 [MICAFUNGIN] (X1-[Orn(4R-OH,5R-OH)]T[Hyp][hTyr(3S-OH,4S-OH,3'-OSO3H)][Gln(3R-OH)][Pro(3S-OH,4S-Me)]; lactam 1-C)
Response: 17400
